# Test system: human prostate cancer cell line (PC3)
# METHOD_DESCRIPTION: MTT cell viability assay, PC3
# Assay type: cell-based
# PARTICULARS: PC3, 48 h treatment
List of IC50 values.

| COMPOUND | UNIT_DESCRIPTOR | IC50 |
| --- | --- | --- |
| C[N+](C)(C)CCO.[Cl-] [Solvent 6, choline chloride] | µg/mL | 13.60 |
| C[N+](C)(C)CCO.[Cl-] [Solvent 2, choline chloride] | µg/mL | 11.94 |
| C[N+](C)(C)CCO.[Cl-] [Solvent 10, choline chloride] | µg/mL | 28.88 |
| NC(N)=O [Solvent 11, urea] | µg/mL | 23.09 |
| OCCO [Solvent 7, ethylene glycol] | µg/mL | 32.48 |
| OCC(O)CO [Solvent 3, glycerine] | µg/mL | 42.38 |
| C[N+](C)(C)CCO.[Cl-] [Solvent 14, choline chloride] | µg/mL | 10.18 |

----------
# System: human oral keratinocyte cell line (OKF6)
# METHOD_DESCRIPTION: MTT cell viability assay, OKF6
# Type: cell-based
# PARTICULARS: OKF6, 48 h treatment
List of IC50 values.

| COMPOUND | UNIT_DESCRIPTOR | IC50 |
| --- | --- | --- |
| C[N+](C)(C)CCO.[Cl-] [Solvent 2, choline chloride] | µg/mL | 26.53 |
| OCCO | µg/mL | 75.62 |
| OCC(O)CO | µg/mL | 129.31 |
| C[N+](C)(C)CCO.[Cl-] [Solvent 6, choline chloride] | µg/mL | 24.58 |
| C[N+](C)(C)CCO.[Cl-] [Solvent 14, choline chloride] | µg/mL | 21.74 |
| C[N+](C)(C)CCO.[Cl-] [Solvent 10, choline chloride] | µg/mL | 32.49 |
| NC(N)=O | µg/mL | 28.22 |

----------
# Test system: carcinoma-derived human oral keratinocyte cells (H413)
# METHOD_DESCRIPTION: MTT cell viability assay, H413
# Type: cell-based
# PARTICULARS: H413, 48 h treatment

| MOLECULE | STUDY_TARGET | IC50 (mg/L) |
| --- | --- | --- |
| C[N+](C)(C)CCO.[Cl-] [Solvent 10, choline chloride] | carcinoma-derived human oral keratinocyte cells (H413) | 38.41 |
| C[N+](C)(C)CCO.[Cl-] [Solvent 6, choline chloride] | carcinoma-derived human oral keratinocyte cells (H413) | 21.84 |
| C[N+](C)(C)CCO.[Cl-] [Solvent 2, choline chloride] | carcinoma-derived human oral keratinocyte cells (H413) | 19.61 |
| C[N+](C)(C)CCO.[Cl-] [Solvent 14, choline chloride] | carcinoma-derived human oral keratinocyte cells (H413) | 21.49 |
| NC(N)=O | carcinoma-derived human oral keratinocyte cells (H413) | 20.22 |
| OCCO | carcinoma-derived human oral keratinocyte cells (H413) | 62.29 |
| OCC(O)CO | carcinoma-derived human oral keratinocyte cells (H413) | 101.02 |

----------
List of IC50 values.
# Tested on: human liver hepatocellular cell line (HepG2)
# METHOD_DESCRIPTION: MTT cell viability assay, HepG2
# Format: cell-based
# PARTICULARS: HepG2, 48 h treatment

| COMPOUND | IC50 |
| --- | --- |
| NC(N)=O | 24.23 ± 4.02 µg/mL |
| C[N+](C)(C)CCO.[Cl-] [Solvent 6, choline chloride] | 12.69 ± 1.63 µg/mL |
| C[N+](C)(C)CCO.[Cl-] [Solvent 10, choline chloride] | 25.99 ± 1.85 µg/mL |
| C[N+](C)(C)CCO.[Cl-] [Solvent 14, choline chloride] | 14.60 ± 2.53 µg/mL |
| OCC(O)CO | 68.85 ± 11.74 µg/mL |
| OCCO | 44.33 ± 5.86 µg/mL |
| C[N+](C)(C)CCO.[Cl-] [Solvent 2, choline chloride] | 14.26 ± 1.43 µg/mL |
